System: H9c2 cardiomyocytes, 2-deoxyglucose stress, ATP luminescence, 2 h
Test: H9c2 cell survival under 2-deoxyglucose stress – uHTS hits, dose response (AID 588780)
The source made the active and inactive calls.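 Rule for the calls: active = compounds whose fitted half-maximal concentration in the cell-protection dose series is at or below a set limit; inactive = the rest.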
A correct response names exactly one class from t for active, f for inactive

Req: Dear all, I need the recorded test outcome for "Cc1[nH]c2ccccc2c1/C=N/NC(=O)c1cccs1" , thank you.
Resp: f

Req: Could you kindly confirm the outcome this assay logged for "Cc1ccc(-c2n[nH]c(=O)c3ccccc23)cc1S(=O)(=O)NC(C)(C)C" ?
Resp: f

Req: Per the records of this test, what outcome belongs to "Cc1cccc(-n2c(SCc3cc(=O)n4ccsc4n3)nc3ccccc3c2=O)c1" ?
Resp: t

Req: Hi, sorry to bother you, what did the test record for "CC(C)(C)N=Cc1c(O)ccc2oc3c(c12)CCCC3" ?
Resp: f

Req: State the result this test recorded for "CN(C(=O)Cn1nc(C(=O)O)c2ccccc2c1=O)C1(C#N)CCCCC1" .
Resp: f

New cases:
Req: Which outcome was entered for the compound O=C(NCC(=O)N(Cc1ccccc1)C(C(=O)NC1CCCCC1)c1ccco1)c1ccco1 (stereo unspecified) in this test?
Resp: t

Req: Outcome logged for "COC(=O)c1c(C)[nH]c(O)c1C=Nc1ccc(Oc2ccccc2)cc1" in this assay:
Resp: f

Req: Dear all, I need the recorded test outcome for "Cc1ccc(-c2n[nH]c(=O)c3ccccc23)cc1S(N)(=O)=O" , thank you.
Resp: f

Req: Entry "NC(=O)c1ccccc1OCC(=O)Nc1cccnc1Cl" : call = ?
Resp: f

Req: Just curious, what result did "COc1ccc(C(=O)NNC(=O)CCc2nc3ccccc3c(=O)[nH]2)cc1" get here?
Resp: f

Req: Tell me the assay call for "O=C(COC(=O)CCc1nc2ccccc2c(=O)[nH]1)NCc1ccc(F)cc1" please.
Resp: f

Req: For this compound, state the assay outcome: "COc1ccc(N=Cc2cc(Cl)ccc2O)cc1Cl"
Resp: f

Req: What did the test return for "COc1cc(/C=N/n2nnnc2Nc2ccccc2)cc(OC)c1OC" ?
Resp: t

Req: Outcome? Cc1ccc(C(C(=O)NCc2ccccc2)N(Cc2cccs2)C(=O)c2ccc3c(c2)OCCO3)cc1 (stereo unspecified)
Resp: f

###

Tested on: H9c2 cardiomyocytes, 2-deoxyglucose stress, ATP luminescence, 2 h
Assay: H9c2 cell survival under 2-deoxyglucose stress – uHTS hits, dose response (AID 588780)
Active and inactive are the calls of the source.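 The calls were made as follows: active = compounds whose fitted half-maximal concentration in the cell-protection dose series is at or below a set limit; inactive = the rest.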
Hello, when you answer, please use one of the following outcomes: True (active), False (inactive)

Req: Short answer needed: outcome of this test for "O=C(Nc1nc(-c2ccccn2)cs1)c1ccccc1-n1cnnn1" ?
Resp: False

Req: Hi, do you know how "O=c1cc(-c2ccncc2)oc2ccccc12" came out in this test?
Resp: False

Req: Can you look up the reported call for "COc1cc(NC(=O)c2ccco2)c(C(=O)OCC(=O)c2c[nH]c3ccccc23)cc1OC" for me?
Resp: True

Req: Dear all, I need the recorded test outcome for "COc1cc(/C=C/c2nnc3c4ccccc4ncn23)cc(OC)c1OC" , thank you.
Resp: False

Req: Hi team, can someone confirm the assay call for O=C(N/N=C\c1ccccn1)C1COc2cc3ccccc3cc2O1 (stereo unspecified) ?
Resp: True

Further cases:
Req: Dear colleague, could you share the recorded outcome for "COc1ccccc1-c1cc2nc(-c3ccccc3)cc(N3CCN(C(=O)c4ccco4)CC3)n2n1" when you have a moment?
Resp: False

Req: What did the test return for "COc1ccc(CCNC(=O)c2cc3c(C)nccc3[nH]c2=O)cc1OC" ?
Resp: True

Req: Record lookup: outcome of this test for "CCN(CC)S(=O)(=O)c1cccc(C(=O)N/N=C/c2ccccn2)c1" ?
Resp: False

Req: Identify the outcome logged in this assay for the molecule shown: "COc1ccc(COc2cc(-c3cccc(OC)c3)nc3ccc(NC(=O)c4ccc(OC)cc4)cc23)cc1"
Resp: True

Req: Per the records of this test, what outcome belongs to "Cc1ccc(N=Cc2cc(Br)cc(Cl)c2O)cc1" ?
Resp: False

Req: Tell me the assay call for "Cc1cc(C)n2nc(C(=O)N/N=C/c3c4ccccc4cc4ccccc34)nc2n1" please.
Resp: False
